Exercise: for every item that follows, state its recorded MSD.
System: Trypanosoma brucei brucei
PROCEDURE_SUMMARY: Antitrypanosomal activity against Trypanosoma brucei brucei GVR35 infected in NMRI mouse assessed as mouse survival at 100 mg/kg, po administered on day 21 post infection for 5 days measured up to 180 days
Format: functional
Give bare numbers, in days.

Here are 3 molecules. What values of MSD were reported for them?
1. CO/N=C(\N)c1ccc(-c2cncc(-c3ccc(/C(N)=N\OC)cn3)n2)nc1
2. N/C(=N\O)c1ccc(-c2cncc(-c3ccc(/C(N)=N/O)cc3)n2)cc1
3. N/C(=N\O)c1ccc(-c2cncc(-c3ccc(/C(N)=N\O)nc3)n2)cn1

1: 67.2; 2: 69; 3: 95.2

###

System: Trypanosoma brucei brucei
PROCEDURE_SUMMARY: Antitrypanosomal activity against Trypanosoma brucei brucei GVR35 infected in NMRI mouse assessed as cured animal at 100 mg/kg, po administered on day 21 post infection for 5 days measured up to 180 days
Assay type: functional, organism-based
Set-up: dose 100 mg/kg
Active and inactive are the calls of the source. The calls are words filed in the database; no cut-off is given here.
Would you mind answering with one of these outcomes? active, inactive

Look up the recorded call for N/C(=N\O)c1ccc(-c2cncc(-c3ccc(/C(N)=N\O)nc3)n2)cn1 in this test.
inactive

Continuing:
Look up the recorded call for CO/N=C(\N)c1ccc(-c2ccc(-c3ccc(/C(N)=N/OC)cn3)o2)nc1 in this test.
active

Look up the recorded call for N/C(=N\O)c1ccc(-c2cncc(-c3ccc(/C(N)=N/O)cc3)n2)cc1 in this test.
inactive

Look up the recorded call for CO/N=C(\N)c1ccc(-c2ccc(-c3ccc(/C(N)=N/OC)cn3)o2)cc1 in this test.
active

Look up the recorded call for CO/N=C(\N)c1ccc(-c2cncc(-c3ccc(/C(N)=N\OC)cn3)n2)nc1 in this test.
inactive

###

Tested on: Liver
PROCEDURE_SUMMARY: Half life in Swiss Webster mouse liver S9 fraction by UV-HPLC analysis
Type: ADME, subcellular
Response key: true means t1/2 >= 30 min; false means t1/2 < 30 min.

Example entries and their recorded answers appear below.
Given the entry N/C(=N\O)c1ccc(-c2cncc(-c3ccc(/C(N)=N/O)cc3)n2)cc1 , answer whether its t1/2 meets or surpasses 30 min.
false

Given the entry N=C(NO)c1ccc(-c2ccc(-c3ccc(/C(N)=N\O)cc3)o2)cc1 , answer whether its t1/2 meets or surpasses 30 min.
false

Given the entry N/C(=N\O)c1ccc(-c2cncc(-c3ccc(/C(N)=N/O)cn3)n2)nc1 , answer whether its t1/2 meets or surpasses 30 min.
false

Given the entry N/C(=N\O)c1ccc(-c2cncc(-c3ccc(/C(N)=N/O)nc3)n2)cc1 , answer whether its t1/2 meets or surpasses 30 min.
true

Now look at this one.
Given the entry N/C(=N\O)c1ccc(-c2cncc(-c3ccc(/C(N)=N\O)nc3)n2)cn1 , answer whether its t1/2 meets or surpasses 30 min.
true

###

Test system: Liver microsomes
PROCEDURE_SUMMARY: Half life in human liver microsomes by UV-HPLC analysis
Format: ADME, Microsome
Response key: Criterion met means t1/2 >= 8 min; Criterion not met means t1/2 < 8 min.

Example entries and their recorded answers appear below.
Given the entry CO/N=C(\N)c1ccc(-c2cncc(-c3ccc(/C(N)=N\OC)cn3)n2)nc1 , answer whether its t1/2 meets or surpasses 8 min.
Criterion met

Given the entry CO/N=C(\N)c1ccc(-c2cncc(-c3ccc(/C(N)=N\OC)cc3)n2)nc1 , answer whether its t1/2 meets or surpasses 8 min.
Criterion not met

Given the entry CO/N=C(\N)c1ccc(-c2cncc(-c3ccc(/C(N)=N\OC)cc3)n2)cn1 , answer whether its t1/2 meets or surpasses 8 min.
Criterion not met

Given the entry CONC(=N)c1ccc(-c2ccc(-c3ccc(C(=N)NOC)cc3)o2)cc1 [PAFURAMIDINE] , answer whether its t1/2 meets or surpasses 8 min.
Criterion not met

Given the entry CO/N=C(\N)c1ccc(-c2cncc(-c3ccc(/C(N)=N\OC)cc3)n2)cc1 , answer whether its t1/2 meets or surpasses 8 min.
Criterion met

Continuing:
Given the entry CO/N=C(\N)c1ccc(-c2cncc(-c3ccc(/C(N)=N\OC)nc3)n2)cn1 , answer whether its t1/2 meets or surpasses 8 min.
Criterion met

###

Test system: Liver
PROCEDURE_SUMMARY: Half life in mouse liver microsomes by UV-HPLC analysis
Type: ADME, Microsome
Response key: fulfilled means t1/2 >= 2 h; not fulfilled means t1/2 < 2 h.

Given the entry CONC(=N)c1ccc(-c2ccc(-c3ccc(C(=N)NOC)cc3)o2)cc1 , answer whether its t1/2 meets or surpasses 2 h.
fulfilled

Given the entry CO/N=C(\N)c1ccc(-c2cncc(-c3ccc(/C(N)=N\OC)cc3)n2)nc1 , answer whether its t1/2 meets or surpasses 2 h.
fulfilled

Given the entry CO/N=C(\N)c1ccc(-c2cncc(-c3ccc(/C(N)=N\OC)cc3)n2)cc1 , answer whether its t1/2 meets or surpasses 2 h.
not fulfilled

Given the entry CO/N=C(\N)c1ccc(-c2cncc(-c3ccc(/C(N)=N\OC)cc3)n2)cn1 , answer whether its t1/2 meets or surpasses 2 h.
not fulfilled

Given the entry CO/N=C(\N)c1ccc(-c2cncc(-c3ccc(/C(N)=N\OC)cn3)n2)nc1 , answer whether its t1/2 meets or surpasses 2 h.
fulfilled

Now look at this one.
Given the entry CO/N=C(\N)c1ccc(-c2cncc(-c3ccc(/C(N)=N\OC)nc3)n2)cn1 , answer whether its t1/2 meets or surpasses 2 h.
not fulfilled

###

Exercise: for every item that follows, state its recorded MSD.
System: Trypanosoma brucei brucei
PROCEDURE_SUMMARY: Antitrypanosomal activity against Trypanosoma brucei brucei GVR35 infected in NMRI mouse assessed as mouse survival at 100 mg/kg, po administered on day 21 post infection for 5 days measured up to 180 days
Type: functional

Worked cases, MSD given:
# MSD lookup, item CO/N=C(\N)c1ccc(-c2ccc(-c3ccc(/C(N)=N/OC)cn3)o2)nc1
>180 days

# MSD lookup, item CO/N=C(\N)c1ccc(-c2cncc(-c3ccc(/C(N)=N\OC)cc3)n2)cc1
>173.8 days

# MSD lookup, item CONC(=N)c1ccc(-c2ccc(-c3ccc(C(=N)NOC)cc3)o2)cc1
>167.8 days

Continuing:
# MSD lookup, item CO/N=C(\N)c1ccc(-c2ccc(-c3ccc(/C(N)=N/OC)cn3)o2)cc1
>180 days

Origin of the recorded values: ChEMBL document CHEMBL2440077
